Assay: NCI Yeast Anticancer Drug Screen. Data for the sgs1 mgt1 strain (AID 161);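 also: 0% = growth of cultures given vehicle only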
Conditions: S. cerevisiae sgs1 mgt1 strain, at 50.0 µM, active compounds read high
The panel holds about 79,000 compounds, 15% with a hit somewhere; the sample as a whole holds those more often.
Classify by measured growth inhibition: Fulfilled if it is equal to or exceeds 10%, Not fulfilled if it is smaller.

Study these solved cases before continuing.
# SAMPLE_SMILES, ASSIGNED_CATEGORY
records = [
    ("CC(C)C1CC[N-]CC1.CC(C)C1CC[N-]CC1.[Cl][Pt+2][Cl]", "Fulfilled"),
    ("CC(=O)Oc1cc(Oc2c(OC(C)=O)cc(Oc3c(OC(C)=O)cc(OC(C)=O)c(OC(C)=O)c3OC(C)=O)cc2OC(C)=O)cc(OC(C)=O)c1OC(C)=O", "Fulfilled"),
    ("CC1=CNNc2ccccc21", "Not fulfilled"),
    ("Cc1cc2c(cc1C)C(C)(C)c1c(nc(N)[nH]c1=O)N2C", "Fulfilled"),
    ("COc1ccc(C(C)=O)cc1CO/N=C1\\CSCc2ccccc21", "Fulfilled"),
]

Now consider the entry below.
Request: Decide: is the reported value of growth inhibition for `CO/C(=N\N=C\c1cccc(C(F)(F)F)c1)c1ccncc1` equal to or greater than 10%?
Response: Not fulfilled

###

List of growth inhibition values.
Assay: NCI Yeast Anticancer Drug Screen. Data for the mec2-1 strain (AID 157)
Conditions: S. cerevisiae mec2-1 strain, at 50.0 µM, active compounds read high
The panel holds about 79,000 compounds, 15% with a hit somewhere; the sample as a whole holds those more often.
# value in %; strip the unit string

// worked examples, growth inhibition included
# COMPOUND, RESULT
rows = [
    ("C1CCc2[nH]nc(-c3n[nH]c4c3CCCCC4)c2CC1", 3.35),
    ("O=C(O)c1cc(Br)c(O)cc1O", -17.6),
    ("NC1=NN(c2ccccc2)C(=O)/C1=C\\n1c(=S)[nH]c2ccccc21", -19.9),
]

Request: I have this compound here, `COC(=O)CCCc1ccccc1N` , and I need its recorded growth inhibition.
Response: -8.8

Request: What value of measured growth inhibition is listed for `C[N+](C)(C)C(Cc1ccccc1)Cc1ccccc1` ?
Response: 9.95

Request: Reported growth inhibition, compound `Cc1cc(C)c(C(=O)/C(O)=C/c2ccccc2)c(C)c1` : ____
Response: -7.7

Request: Bench note: what growth inhibition did `O=C(COc1ccc(Cl)cc1Cl)Nc1ccc2ccccc2c1S(=O)(=O)O` show?
Response: 2.2

Request: Which growth inhibition value is on record for `O=C(OC(=O)c1cccnc1)c1cccnc1` ?
Response: -9.5

Request: Form field: reported growth inhibition of CCC(C)C(CC)C(=O)N(C)C(=O)N(C)C(C)=O (stereo unspecified)
Response: 33.3

Request: Which measured growth inhibition value corresponds to `Cc1ccc(C(C)C)cc1OCCOCCCl` ?
Response: 12.8

Request: Could you share which growth inhibition value was measured for `CCOc1nc(C(=O)O)cc2ccsc12` ?
Response: -6.2

Request: # get_value(readout='growth inhibition', item= `O=C(c1ccccc1)c1oc(CO)cc(=O)c1O` )
Response: -12

###

Test: NCI Yeast Anticancer Drug Screen. Data for the rad50 strain (AID 155);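 also: 0% = growth of vehicle-only cultures of the same strain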
Conditions: S. cerevisiae rad50 strain growth inhibition; at 50.0 µM; active compounds read high
Compounds without any hit were thinned out: in the full panel of roughly 79,000, 15% have a hit.
MEASURED_QUANTITY: growth inhibition (%)
Number only, in %; omit the unit.

# COMPOUND, MEASURED_QUANTITY, RESULT
rows = [
    ("CC1(C)N=C(C(N)=O)c2[nH]cnc2N1", "growth inhibition", -2.55),
]

Request: Could you tell me which growth inhibition is on file for NC(CCCCC(=O)O)C(=O)O (configuration not stated) ?
Response: -30.1

Request: Dear colleague, I am looking for the recorded growth inhibition of the following compound: `CCCCC(CC)(CO)CO`
Response: 11.2

Request: Looking for the measured growth inhibition of `CCCCCCCCOC(=O)c1cc([N+](=O)[O-])c(Sc2ncnc3nc[nH]c23)c([N+](=O)[O-])c1` , can you help?
Response: 32

Request: For the compound `Cc1cccc(Cl)c1NC(=O)CN(C)C` , what growth inhibition is on record?
Response: 21.4

Request: I am curious: what growth inhibition value has been reported for OCC1C=Cc2ccccc21 (configuration not stated) ?
Response: -3.8

Request: Given the compound O=C1CC2[C@@H](N3CCCC3)CCC(N1Cc1ccccc1)C2(O)O (some centres not stated) , what is its reported growth inhibition?
Response: -6.75
